Kindly supply the reported pIC50 values for the records listed here.
# assay-target: alpha4-beta7 (Homo sapiens, UniProt P13612+P26010)
# Construct: Sufficient RPMI 8866 cells were removed from stock for assay; endogenous in cells
# Sequence (P13612 34-1032): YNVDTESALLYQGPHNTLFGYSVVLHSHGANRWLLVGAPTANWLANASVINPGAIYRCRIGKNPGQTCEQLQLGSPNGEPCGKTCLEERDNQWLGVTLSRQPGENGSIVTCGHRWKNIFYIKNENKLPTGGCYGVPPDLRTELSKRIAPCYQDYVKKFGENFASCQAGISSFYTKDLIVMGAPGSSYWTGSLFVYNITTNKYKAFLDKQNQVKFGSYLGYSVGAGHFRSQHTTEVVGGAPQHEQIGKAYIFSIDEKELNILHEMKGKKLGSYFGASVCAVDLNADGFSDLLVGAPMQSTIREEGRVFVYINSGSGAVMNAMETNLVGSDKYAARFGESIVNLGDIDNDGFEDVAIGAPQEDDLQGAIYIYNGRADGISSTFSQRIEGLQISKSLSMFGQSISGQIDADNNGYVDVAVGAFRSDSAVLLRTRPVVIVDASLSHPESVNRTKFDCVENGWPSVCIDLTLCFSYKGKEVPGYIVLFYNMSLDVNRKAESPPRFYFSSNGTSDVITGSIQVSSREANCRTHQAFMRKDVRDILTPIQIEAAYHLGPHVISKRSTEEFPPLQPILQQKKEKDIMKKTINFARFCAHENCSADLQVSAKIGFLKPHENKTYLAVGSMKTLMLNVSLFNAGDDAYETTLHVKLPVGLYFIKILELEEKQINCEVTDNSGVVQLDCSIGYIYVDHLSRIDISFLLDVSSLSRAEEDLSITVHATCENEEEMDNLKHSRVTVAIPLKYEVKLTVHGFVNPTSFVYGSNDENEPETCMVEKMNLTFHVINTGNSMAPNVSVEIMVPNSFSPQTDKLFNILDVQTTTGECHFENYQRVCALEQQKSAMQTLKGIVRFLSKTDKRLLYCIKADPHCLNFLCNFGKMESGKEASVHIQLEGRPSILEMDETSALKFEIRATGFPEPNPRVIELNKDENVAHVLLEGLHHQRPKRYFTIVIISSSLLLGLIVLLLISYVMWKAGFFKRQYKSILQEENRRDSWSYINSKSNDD
# Sequence (P26010 20-798): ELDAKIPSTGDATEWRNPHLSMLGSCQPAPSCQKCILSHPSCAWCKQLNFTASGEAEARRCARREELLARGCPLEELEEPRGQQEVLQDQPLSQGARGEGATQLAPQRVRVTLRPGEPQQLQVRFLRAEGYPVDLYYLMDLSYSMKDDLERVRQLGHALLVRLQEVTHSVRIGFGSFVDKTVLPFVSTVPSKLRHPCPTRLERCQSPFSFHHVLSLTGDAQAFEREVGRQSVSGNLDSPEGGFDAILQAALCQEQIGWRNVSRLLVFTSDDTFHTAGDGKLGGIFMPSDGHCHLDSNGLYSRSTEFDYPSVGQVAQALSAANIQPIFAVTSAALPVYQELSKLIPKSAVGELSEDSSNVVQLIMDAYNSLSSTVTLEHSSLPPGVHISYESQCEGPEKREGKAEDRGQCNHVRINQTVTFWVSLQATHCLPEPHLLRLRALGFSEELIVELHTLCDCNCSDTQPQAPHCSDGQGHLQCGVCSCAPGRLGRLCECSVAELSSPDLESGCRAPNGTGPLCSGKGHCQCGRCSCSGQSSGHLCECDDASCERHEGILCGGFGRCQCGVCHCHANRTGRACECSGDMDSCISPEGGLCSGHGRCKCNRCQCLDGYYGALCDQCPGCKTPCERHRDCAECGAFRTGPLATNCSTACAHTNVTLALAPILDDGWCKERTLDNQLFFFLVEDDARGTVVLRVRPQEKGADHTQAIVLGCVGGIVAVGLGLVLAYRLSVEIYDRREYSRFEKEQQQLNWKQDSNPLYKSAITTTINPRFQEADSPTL
# measurement-notes: Alpha4-Beta7 Assay (MadCAM/RPMI 8866 cell adhesion)
# condition-details: calcein labeled RPMI 8866 cells adhering to immobilized MadCAM
# Protocol: Alpha4-Beta7 Assay Protocol Two weeks to one day prior to the assay, Nunc high-binding F96 Maxisorp immuno plates, #442404 or #439454, were coated with 25 ng/well (0.25 μg/ml) MadCAM in a volume of 100 μl/well. […] Stock solution of test compounds at 25× first dilution desired in 100% DMSO were prepared. […] Stock concentrations and dilutions of compounds for screening were determined by anticipated activity. […]
pIC50: −log10 of the molar value.

Inquiry: Please give the measured pIC50 for this molecule: Cc1c(-c2ccc(C[C@H](NC(=O)c3c(C(C)C)cccc3C(C)C)C(=O)O)cc2)c(=O)n(C)c(=O)n1C [Example 14]
Reply text: > 5.30

Inquiry: Then what about the molecule CCCc1cccc(Cl)c1C(=O)N[C@@H](Cc1ccc(-c2c(C)n(C)c(=O)n(C)c2=O)cc1)C(=O)O [Example 16] ?
Reply text: > 5.00

Inquiry: Another molecule to look at: Cc1cc(C[C@H](NC(=O)c2c(Cl)cccc2Cl)C(=O)O)ccc1-c1c(C)n(C)c(=O)n(C)c1=O [Example 26]
Reply text: > 5.00

Inquiry: Field entry: Cn1c(C(F)(F)F)c(-c2ccc(C[C@H](NC(=O)c3c(F)cccc3C(F)(F)F)C(=O)O)cc2)c(=O)n(C)c1=O [Example 23]
Reply text: > 5.00
